- system: ATP-binding cassette sub-family C member 2 (Homo sapiens, UniProt Q92887)
- Sequence (Q92887 whole entry): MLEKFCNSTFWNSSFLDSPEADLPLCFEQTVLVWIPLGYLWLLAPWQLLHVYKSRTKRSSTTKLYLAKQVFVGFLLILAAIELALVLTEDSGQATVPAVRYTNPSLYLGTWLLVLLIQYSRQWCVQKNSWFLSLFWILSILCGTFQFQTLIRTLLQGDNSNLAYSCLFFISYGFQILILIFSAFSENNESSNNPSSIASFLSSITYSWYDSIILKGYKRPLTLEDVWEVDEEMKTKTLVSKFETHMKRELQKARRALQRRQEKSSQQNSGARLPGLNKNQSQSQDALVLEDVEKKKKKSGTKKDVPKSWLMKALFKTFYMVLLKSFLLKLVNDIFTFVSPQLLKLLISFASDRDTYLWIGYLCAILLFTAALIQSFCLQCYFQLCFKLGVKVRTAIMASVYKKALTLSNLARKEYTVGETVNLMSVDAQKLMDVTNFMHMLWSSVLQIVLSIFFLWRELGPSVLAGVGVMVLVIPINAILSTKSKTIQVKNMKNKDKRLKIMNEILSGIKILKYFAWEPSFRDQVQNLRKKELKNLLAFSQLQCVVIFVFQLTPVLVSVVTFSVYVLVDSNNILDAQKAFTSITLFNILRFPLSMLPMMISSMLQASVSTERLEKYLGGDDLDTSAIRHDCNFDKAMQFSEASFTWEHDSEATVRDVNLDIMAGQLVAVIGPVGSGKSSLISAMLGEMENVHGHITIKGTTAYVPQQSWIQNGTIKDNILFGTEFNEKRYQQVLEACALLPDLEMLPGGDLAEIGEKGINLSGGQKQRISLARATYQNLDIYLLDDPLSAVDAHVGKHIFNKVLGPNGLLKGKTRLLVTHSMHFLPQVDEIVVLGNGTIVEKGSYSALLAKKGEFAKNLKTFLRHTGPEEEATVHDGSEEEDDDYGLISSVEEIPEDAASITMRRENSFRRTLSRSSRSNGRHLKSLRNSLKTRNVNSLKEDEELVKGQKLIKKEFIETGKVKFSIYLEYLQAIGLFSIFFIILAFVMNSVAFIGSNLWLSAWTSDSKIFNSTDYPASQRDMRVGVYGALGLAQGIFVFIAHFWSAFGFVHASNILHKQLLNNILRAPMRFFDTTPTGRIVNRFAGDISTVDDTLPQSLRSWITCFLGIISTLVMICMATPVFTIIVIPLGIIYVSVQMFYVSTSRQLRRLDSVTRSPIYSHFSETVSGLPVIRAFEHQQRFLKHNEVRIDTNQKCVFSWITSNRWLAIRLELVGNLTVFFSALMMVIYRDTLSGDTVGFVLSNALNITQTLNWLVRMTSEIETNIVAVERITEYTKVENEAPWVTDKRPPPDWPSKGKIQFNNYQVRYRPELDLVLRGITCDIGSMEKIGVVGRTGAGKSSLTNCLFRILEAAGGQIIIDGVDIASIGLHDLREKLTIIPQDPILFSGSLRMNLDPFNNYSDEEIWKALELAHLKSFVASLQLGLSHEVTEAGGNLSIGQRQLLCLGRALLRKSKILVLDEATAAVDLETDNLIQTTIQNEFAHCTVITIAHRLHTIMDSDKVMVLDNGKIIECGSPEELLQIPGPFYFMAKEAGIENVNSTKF
- test: Inhibition of human MRP2 overexpressed in Sf9 cell membrane vesicles assessed as uptake of [3H]-estradiol-17beta-D-glucuronide in presence of ATP and GSH measured after 20 mins by membrane vesicle transport assay
Parameter IC50: see the listing below.

Which measured IC50 belongs to CC(=O)CCCCn1c(=O)c2c(ncn2C)n(C)c1=O , tested on ATP-binding cassette sub-family C member 2 (Homo sapiens, UniProt Q92887)?
> 133 µM

# returns recorded IC50 (system: ATP-binding cassette sub-family C member 2 (Homo sapiens, UniProt Q92887)) for CCNC(=O)[C@@H]1CCCN1C(=O)[C@H](CCCNC(=N)N)NC(=O)[C@H](CC(C)C)NC(=O)[C@@H](CC(C)C)NC(=O)[C@H](Cc1ccc(O)cc1)NC(=O)[C@H](CO)NC(=O)[C@H](Cc1c[nH]c2ccccc12)NC(=O)[C@H](Cc1c[nH]cn1)NC(=O)[C@@H]1CCC(=O)N1 [LEUPROLIDE ACETATE]
80.2 µM

Could you share what IC50 was measured for COc1ccccc1N1CCN(CCCNc2cc(=O)n(C)c(=O)n2C)CC1 , tested on ATP-binding cassette sub-family C member 2 (Homo sapiens, UniProt Q92887)?
> 133 µM

# query: IC50 | item COc1cc(C(C)=O)ccc1OCCCN1CCC(c2noc3cc(F)ccc23)CC1 | system: ATP-binding cassette sub-family C member 2 (Homo sapiens, UniProt Q92887)
> 133 µM

More entries:
Provide the documented IC50 with ATP-binding cassette sub-family C member 2 (Homo sapiens, UniProt Q92887) as the system for NC[C@H]1O[C@H](O[C@H]2[C@H](O)[C@@H](O[C@H]3O[C@H](CO)[C@@H](O)[C@H](N)[C@H]3O)[C@H](N)C[C@@H]2N)[C@H](N)C[C@@H]1O
> 133 µM

Form entry - test system: ATP-binding cassette sub-family C member 2 (Homo sapiens, UniProt Q92887); read-out: IC50; compound: CCCCC(=O)OCC(=O)[C@]1(O)Cc2c(O)c3c(c(O)c2[C@@H](O[C@H]2C[C@H](NC(=O)C(F)(F)F)[C@H](O)[C@H](C)O2)C1)C(=O)c1c(OC)cccc1C3=O
64 µM

* * *

Below is a list of entries, each paired with its recorded IC50 value.
- system: ATP-binding cassette sub-family C member 4 (Homo sapiens)
- Sequence (O15439 whole entry): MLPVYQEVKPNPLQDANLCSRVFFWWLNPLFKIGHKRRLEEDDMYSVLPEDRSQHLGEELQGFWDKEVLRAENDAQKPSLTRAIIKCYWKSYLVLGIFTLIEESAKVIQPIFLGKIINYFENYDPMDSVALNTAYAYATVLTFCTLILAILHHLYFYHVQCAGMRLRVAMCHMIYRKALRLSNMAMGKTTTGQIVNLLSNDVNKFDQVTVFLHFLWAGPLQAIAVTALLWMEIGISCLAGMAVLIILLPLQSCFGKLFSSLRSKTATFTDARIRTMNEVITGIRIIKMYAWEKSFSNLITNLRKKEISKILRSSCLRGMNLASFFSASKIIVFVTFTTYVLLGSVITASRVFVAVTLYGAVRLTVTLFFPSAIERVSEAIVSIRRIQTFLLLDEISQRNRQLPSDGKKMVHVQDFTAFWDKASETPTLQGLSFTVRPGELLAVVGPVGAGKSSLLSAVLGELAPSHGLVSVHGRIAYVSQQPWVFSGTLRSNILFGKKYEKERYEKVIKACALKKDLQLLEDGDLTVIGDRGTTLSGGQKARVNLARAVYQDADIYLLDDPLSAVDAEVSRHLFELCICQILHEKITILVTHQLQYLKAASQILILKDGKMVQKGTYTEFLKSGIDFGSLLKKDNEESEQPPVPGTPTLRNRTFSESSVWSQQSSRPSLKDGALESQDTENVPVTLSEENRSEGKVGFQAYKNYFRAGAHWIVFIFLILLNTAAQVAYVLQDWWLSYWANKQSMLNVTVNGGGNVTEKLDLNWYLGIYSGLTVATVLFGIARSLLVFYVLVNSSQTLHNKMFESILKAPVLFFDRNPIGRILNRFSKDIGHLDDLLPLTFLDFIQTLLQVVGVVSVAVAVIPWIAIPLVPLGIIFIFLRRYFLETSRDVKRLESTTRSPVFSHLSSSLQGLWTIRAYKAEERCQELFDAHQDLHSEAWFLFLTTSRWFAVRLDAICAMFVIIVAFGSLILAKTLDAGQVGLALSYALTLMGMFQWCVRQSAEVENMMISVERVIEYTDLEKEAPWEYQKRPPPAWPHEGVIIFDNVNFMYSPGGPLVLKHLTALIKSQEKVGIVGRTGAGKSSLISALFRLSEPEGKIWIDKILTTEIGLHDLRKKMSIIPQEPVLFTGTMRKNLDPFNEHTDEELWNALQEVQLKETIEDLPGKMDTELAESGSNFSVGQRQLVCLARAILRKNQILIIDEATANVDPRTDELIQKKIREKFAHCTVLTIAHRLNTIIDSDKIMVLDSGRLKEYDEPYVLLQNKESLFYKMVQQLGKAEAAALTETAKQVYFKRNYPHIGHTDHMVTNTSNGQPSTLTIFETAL
- test: Inhibition of human MRP4 overexpressed in Sf9 cell membrane vesicles assessed as uptake of [3H]-estradiol-17beta-D-glucuronide in presence of ATP and GSH measured after 20 mins by membrane vesicle transport assay

Example cases with answers are listed next.
What measured IC50 goes with CCOC(=O)c1ccc(C#Cc2ccc3c(c2)C(C)(C)CCS3)nc1 ?
> 133 µM

Looking for the measured IC50 of C=C1C[C@@H]2[C@H](CC[C@]3(C)C(=O)CC[C@@H]23)[C@@]2(C)C=CC(=O)C=C12 , can you help?
> 133 µM

More entries:
Request the reported IC50 associated with COC[C@@H](NC(C)=O)C(=O)NCc1ccccc1 [LACOSAMIDE]
> 133 µM

Item under review: CCN(C(C)=O)c1cccc(-c2ccnc3c(C#N)cnn23)c1 . Reported IC50?
> 133 µM

Quick check: IC50 of CCCC1O[C@@H]2C[C@H]3[C@@H]4CCC5=CC(=O)C=C[C@]5(C)[C@H]4[C@@H](O)C[C@]3(C)[C@]2(C(=O)CO)O1 (stereo not given in full) [BUDESONIDE] ?
37 µM

Report IC50 for COCCOC(=O)C1=C(C)NC(C)=C(C(=O)OC(C)C)C1c1cccc([N+](=O)[O-])c1 (stereo not given) please.
> 133 µM

Report IC50 for Clc1ccc(COC(Cn2ccnc2)c2ccc(Cl)cc2Cl)c(Cl)c1 (stereo not given) [MICONAZOLE NITRATE] please.
> 133 µM

Recorded IC50 of OCC(CO)N[C@H]1C[C@](O)(CO)[C@@H](O)[C@H](O)[C@H]1O , please.
> 133 µM

Could you share which IC50 value was measured for C#C[C@]1(O)CC[C@H]2[C@@H]3CCC4=Cc5oncc5C[C@]4(C)[C@H]3CC[C@@]21C ?
> 133 µM

Query: IC50; subject: Clc1ccc2c(c1)C(N1CCNCC1)=Nc1ccccc1O2
> 133 µM

Which value of IC50 has been reported for CSc1ccc(C(=O)c2[nH]c(=O)[nH]c2C)cc1 in the records?
> 133 µM

I'd like to know its IC50. The molecule in question is Cc1nc(-c2ccc(OCC(C)C)c(C#N)c2)sc1C(=O)O
1.9 µM

Item under review: CC1(C)O[C@@H]2C[C@H]3[C@@H]4CCC5=CC(=O)C=C[C@]5(C)[C@@]4(F)[C@@H](O)C[C@]3(C)[C@]2(C(=O)CO)O1 [TRIAMCINOLONE ACETONIDE] . Reported IC50?
> 133 µM

Where these numbers come from: ChEMBL document CHEMBL4028801
